# Test system: human PKK mRNA
# MEASUREMENT_PROTOCOL: Antisense inhibition of human PKK mRNA in HepaRG cells, 1,000 nM, MOE/deoxy/cEt oligonucleotides (Example 3)
# Format: cell-based
# CONDITION_LABEL: HepaRG cells, electroporation with 1,000 nM antisense oligonucleotide, approximately 24 hours, primer probe set RTS3454, relative to untreated control cells; experiment of Table 24
Strand notation (5' to 3'): a small letter for the sugar, then the base; units joined by * are phosphorothioate-linked, units joined directly phosphodiester-linked; [ ] holds rarer units or linkages, { } end groups; capitals alone tell only the bases. e = 2'-O-(2-methoxyethyl) (MOE); k = constrained ethyl (cEt); [5mC] = 5-methylcytosine; d = 2'-deoxy (DNA)
Assign % inhibition to each entry below.
Give bare numbers, in %.

Below are worked cases with known answers.
// lookup % inhibition for 548015 (eT*eT*kG*dT*d[5mC]*d[5mC]*d[5mC]*d[5mC]*dA*dG*dT*dG*dT*kT*kA*e[5mC]; antisense) [compound 548015]
50

// repeat for 548027 (eG*eT*kG*dT*d[5mC]*d[5mC]*dT*dA*dT*dG*dA*dG*dT*kG*kA*e[5mC]; antisense) [compound 548027] and report
18

// repeat for 548056 (eG*eT*kG*dT*dA*dA*dT*dT*d[5mC]*dA*dA*dA*dG*kG*kA*eG; antisense) [compound 548056] and report
40

// repeat for 548007 (e[5mC]*eT*k[5mC]*dA*dA*dA*dG*dA*dG*dT*dA*dA*d[5mC]*k[5mC]*kA*eG; antisense) [compound 548007] and report
70

// repeat for 548054 (eA*eA*kT*dT*d[5mC]*dA*dA*dA*dG*dG*dA*dG*d[5mC]*k[5mC]*kT*eG; antisense) [compound 548054] and report
45

Next:
// lookup % inhibition for 548021 (e[5mC]*eA*k[5mC]*dT*d[5mC]*dT*d[5mC]*d[5mC]*d[5mC]*d[5mC]*dA*dA*dG*kA*kA*eG; antisense) [compound 548021]
0
